tested on: SW-620; assay: Cytotoxicity against human SW620 cells; type: functional; conditions: read-out: pTGI (converted)
Endpoint: TGI (µM)
State the answer as a number, implicitly in µM.

Exercise: I am curious: what TGI value has been reported for CC1=C(SCCC(=O)OC(C[Se]C2=C(C)C(=O)c3ccccc3C2=O)C(=O)NCCCCCC(=O)OCc2ccccc2)C(=O)c2ccccc2C1=O (centres undefined) ?
Key: 9.33

Exercise: I am curious: what TGI value has been reported for CC1=C([Se]CC(OC(=O)[C@@H](CO)NC(=O)OC(C)(C)C)C(=O)NC(C)(C)C)C(=O)c2ccccc2C1=O (some centres undefined) ?
Key: 3.31

Exercise: I am curious: what TGI value has been reported for CC1=C([Se]CC(OC(=O)[C@@H](CO)NC(=O)OC(C)(C)C)C(=O)NCCCCCC(=O)OCc2ccccc2)C(=O)c2ccccc2C1=O (some centres undefined) ?
Key: 3.24

Exercise: I am curious: what TGI value has been reported for CC1=C([Se]CC(OC(=O)[C@@H](CSSC(C)(C)C)NC(=O)C(C)(C)C)C(=O)NCCCCCC(=O)OCc2ccccc2)C(=O)c2ccccc2C1=O (some centres undefined) ?
Key: 5.25

Values from ChEMBL document CHEMBL2177069
